Parameter 'readout' = pKi; parameter 'system' = UniProt P25099.
Friendly reminder that pKi comes from taking -log10 of the concentration in mol/L.

In the examples that follow, each entry is paired with its recorded pKi.
INSERT INTO results (compound, tested_target, measured_metric, observed_value) VALUES
  ('C#Cc1nc(N)c2ncn(C3O[C@H](CO)[C@@H](O)[C@H]3O)c2n1 (stereo not given in full)', 'UniProt P25099', 'pKi', 6.57),
  ('CCCCCCCCOCCC#Cc1nc(N)c2ncn([C@@H]3O[C@H](CO)[C@@H](O)[C@H]3O)c2n1', 'UniProt P25099', 'pKi', 5.82),
  ('CCCCCCC#Cc1nc(N)c2ncn([C@@H]3O[C@H](CO)[C@@H](O)[C@H]3O)c2n1', 'UniProt P25099', 'pKi', 6.69),
  ('CCCOCCC#Cc1nc(N)c2ncn(C3O[C@H](CO)[C@@H](O)[C@H]3O)c2n1 (stereo not given in full)', 'UniProt P25099', 'pKi', 6.89),
  ('CCCCCC#Cc1nc(N)c2ncn([C@@H]3O[C@H](CO)[C@@H](O)[C@H]3O)c2n1', 'UniProt P25099', 'pKi', 6.77),
  ('CCC#Cc1nc(N)c2ncn([C@@H]3O[C@H](CO)[C@@H](O)[C@H]3O)c2n1', 'UniProt P25099', 'pKi', 6.73);

### Prompt Param item = CCCCOCC#Cc1nc(N)c2ncn([C@@H]3O[C@H](CO)[C@@H](O)[C@H]3O)c2n1 ; retrieve measured pKi.
### Response 7.73

### Prompt Param item = Nc1nc(C#CCO)nc2c1ncn2[C@@H]1O[C@H](CO)[C@@H](O)[C@H]1O ; retrieve measured pKi.
### Response 8.00

###

# tested_target: Adenosine receptor A1 (Rattus norvegicus)
# Sequence (P25099 whole entry): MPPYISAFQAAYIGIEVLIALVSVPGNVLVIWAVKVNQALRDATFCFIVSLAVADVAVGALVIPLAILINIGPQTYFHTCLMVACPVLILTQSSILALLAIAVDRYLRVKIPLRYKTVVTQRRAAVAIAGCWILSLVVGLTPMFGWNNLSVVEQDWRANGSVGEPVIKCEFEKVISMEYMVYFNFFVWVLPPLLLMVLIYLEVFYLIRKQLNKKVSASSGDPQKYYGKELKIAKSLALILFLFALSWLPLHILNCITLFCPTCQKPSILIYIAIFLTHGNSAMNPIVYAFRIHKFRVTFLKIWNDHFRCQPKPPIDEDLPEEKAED
Param label: returns t when Ki < 100 nM, returns f otherwise, including exact equality.

Some solved cases for reference:
INSERT INTO results (molecule, cat) VALUES
  ('CC(=O)c1nc(N)c2ncn(C3O[C@H](CO)[C@@H](O)[C@H]3O)c2n1 (some centres not stated)', 'f'),
  ('CCCCCCC#Cc1nc2c(N)ncnc2n1C1O[C@H](CO)[C@@H](O)[C@H]1O (some centres not stated)', 'f'),
  ('CCCCCCC#Cc1nc(O)c2ncn(C3O[C@H](CO)[C@@H](O)[C@H]3O)c2n1 (some centres not stated)', 'f'),
  ('CCCCCCCCc1nc(N)c2ncn(C3O[C@H](CO)[C@@H](O)[C@H]3O)c2n1 (some centres not stated)', 'f');

### Prompt is_below(Ki, 100 nM) for CCCCCCC#Cc1ncnc2c1ncn2C1O[C@H](CO)[C@@H](O)[C@H]1O (some centres not stated) ?
### Response f

### Prompt is_below(Ki, 100 nM) for CCCCCC/C=C\c1nc(N)c2ncn(C3O[C@H](CO)[C@@H](O)[C@H]3O)c2n1 (some centres not stated) ?
### Response f

### Prompt is_below(Ki, 100 nM) for CCCC#Cc1nc(N)c2ncn([C@@H]3O[C@H](CO)[C@@H](O)[C@H]3O)c2n1 ?
### Response f

### Prompt is_below(Ki, 100 nM) for CCCCCCCCC#Cc1nc(N)c2ncn([C@@H]3O[C@H](CO)[C@@H](O)[C@H]3O)c2n1 ?
### Response f

### Prompt is_below(Ki, 100 nM) for CCOCCCC#Cc1nc(N)c2ncn([C@@H]3O[C@H](CO)[C@@H](O)[C@H]3O)c2n1 ?
### Response f

### Prompt is_below(Ki, 100 nM) for CCCCCCCC#Cc1nc(N)c2ncn([C@@H]3O[C@H](CO)[C@@H](O)[C@H]3O)c2n1 ?
### Response f

### Prompt is_below(Ki, 100 nM) for CCc1nc(N)c2ncn(C3O[C@H](CO)[C@@H](O)[C@H]3O)c2n1 (some centres not stated) ?
### Response f

### Prompt is_below(Ki, 100 nM) for CCCCCCC#Cc1nc(N)c2[nH]cnc2n1 ?
### Response f

### Prompt is_below(Ki, 100 nM) for Nc1nc(C#CCCO)nc2c1ncn2[C@@H]1O[C@H](CO)[C@@H](O)[C@H]1O ?
### Response t
